These measurements were taken from ChEMBL document CHEMBL1142442.

Attribute: MIC
- System: Escherichia coli
- test method notes: Antibacterial activity at Escherichia coli
- Type: functional

# smiles notation, quantity unit, reading qualifier, MIC
records = [
    ("CC[C@H]1OC(=O)[C@H](C)[C@@H](O[C@H]2C[C@@](C)(OC)[C@@H](O)[C@H](C)O2)[C@H](C)[C@@H](O[C@@H]2O[C@H](C)C[C@H](N(C)C)[C@H]2O)[C@](C)(O)C[C@@H](C)C(=O)[C@H](C)[C@@H](O)[C@]1(C)O", "µg/mL", "=", 64),
    ("COC(=O)CC[C@@H](C)[C@H]1CC[C@H]2[C@@H]3[C@H](O)C[C@@H]4C[C@@H](NC(=O)CCNC(=O)CCNC(=O)CCNC(=O)CCNC(=O)OC(C)(C)C)CC[C@]4(C)[C@H]3C[C@H](O)[C@]12C", "µg/mL", ">", 128),
]

---

- System: Escherichia coli
- test method notes: Antibacterial activity at Escherichia coli
- Type: functional
Where a SMILES comes first, the peptide text is derived from it.

# compound, target or system, reading qualifier, MIC (µg/mL)
measured = [
    ("COC(=O)CC[C@@H](C)[C@H]1CC[C@H]2[C@@H]3[C@H](O)C[C@@H]4C[C@@H](NC(=O)CCNC(=O)CCNC(=O)CCNC(=O)CCN)CC[C@]4(C)[C@H]3C[C@H](O)[C@]12C", "Escherichia coli", "=", 96),
    ("NCC(=O)NCC(=O)NCC(=O)NCC(=O)O (H-GGGG-OH)", "Escherichia coli", ">", 128),
    ("COC(=O)CC[C@@H](C)[C@H]1CC[C@H]2[C@@H]3[C@H](O)C[C@@H]4C[C@@H](NC(=O)CNC(=O)CNC(=O)CNC(=O)CNC(=O)OC(C)(C)C)CC[C@]4(C)[C@H]3C[C@H](O)[C@]12C", "Escherichia coli", "=", 96),
]

---

Attribute: pIC50
- System: MCF7
- test method notes: Antiproliferative activity against human MCF7 cells by MTT assay
- Format: functional, cell-based
pIC50: −log10 of the molar value.

# smiles notation, reading qualifier, pIC50
rows = [
    ("COC(=O)CC[C@@H](C)[C@H]1CC[C@H]2[C@@H]3[C@H](O)C[C@@H]4C[C@@H](NC(=O)CCNC(=O)CCNC(=O)CCNC(=O)CCNC(=O)OC(C)(C)C)CC[C@]4(C)[C@H]3C[C@H](O)[C@]12C", "=", 4.00),
    ("COC(=O)CC[C@@H](C)[C@H]1CC[C@H]2[C@@H]3[C@H](O)C[C@@H]4C[C@@H](NC(=O)CNC(=O)CNC(=O)CNC(=O)CN)CC[C@]4(C)[C@H]3C[C@H](O)[C@]12C", "=", 3.30),
    ("C[C@H](CCCO)[C@H]1CC[C@H]2[C@@H]3[C@H](O)C[C@@H]4C[C@@H](NC(=O)CCNC(=O)CCNC(=O)CCNC(=O)CCN)CC[C@]4(C)[C@H]3C[C@H](O)[C@]12C", "<", 3.00),
    ("COC(=O)CC[C@@H](C)[C@H]1CC[C@H]2[C@@H]3[C@H](O)C[C@@H]4C[C@@H](NC(=O)CNC(=O)CNC(=O)CNC(=O)CNC(=O)OC(C)(C)C)CC[C@]4(C)[C@H]3C[C@H](O)[C@]12C", "=", 3.52),
]
